The measured values listed here are drawn from patent USRE49816E1.

- target_system: hu i-20S β5i-subunit (Homo sapiens, UniProt P20618+P28062)
- assay_remarks: N,C-capped dipeptides IC50, Ac-ANW-AMC fluorescence assay
Lab note: cut-off is 900 nM. Strictly less in IC50 is fulfilled. Exactly 900 nM or more is not fulfilled.

# smiles_input, target_system, class_name
rows = [
    ("COC[C@H](NC(=O)CCc1ccccc1)C(=O)N[C@@H](C)C(=O)NCc1cccc2ccccc12", "hu i-20S β5i-subunit (Homo sapiens, UniProt P20618+P28062)", "not fulfilled"),
    ("C[C@H](NC(=O)[C@H](CC(=O)NOC(C)(C)C)NC(=O)CCc1ccccc1)C(=O)NCc1ccnc2ccccc12", "hu i-20S β5i-subunit (Homo sapiens, UniProt P20618+P28062)", "not fulfilled"),
    ("CC(C)[C@H](NC(=O)[C@H](CC(=O)NOC(C)(C)C)NC(=O)CCc1ccccc1)C(=O)NCc1cccc2ccccc12", "hu i-20S β5i-subunit (Homo sapiens, UniProt P20618+P28062)", "fulfilled"),
    ("CC(C)(C)NC(=O)CC[C@H](NC(=O)CCc1ccccc1)C(=O)N[C@@H](Cc1ccc(F)cc1)C(=O)NCc1cccc2ccccc12", "hu i-20S β5i-subunit (Homo sapiens, UniProt P20618+P28062)", "fulfilled"),
    ("Cc1ccc(S(=O)(=O)N[C@@H](CCC(=O)NC(C)(C)C)C(=O)N[C@@H](C)C(=O)NOc2ccccc2)cc1", "hu i-20S β5i-subunit (Homo sapiens, UniProt P20618+P28062)", "fulfilled"),
    ("Cc1ccc(S(=O)(=O)N[C@@H](CCC(=O)NC(C)(C)C)C(=O)N[C@@H](C)C(=O)NCc2cccc(C(F)(F)F)c2)cc1", "hu i-20S β5i-subunit (Homo sapiens, UniProt P20618+P28062)", "fulfilled"),
    ("C[C@H](NC(=O)[C@H](CCC(=O)NC(C)(C)C)NC(=O)CCc1ccccc1)C(=O)NCCc1cccc2ccccc12", "hu i-20S β5i-subunit (Homo sapiens, UniProt P20618+P28062)", "not fulfilled"),
]

====

- target_system: hu i-20S β5i-subunit (Homo sapiens, UniProt P20618+P28062)
- assay_remarks: N,C-capped dipeptides IC50, Ac-ANW-AMC fluorescence assay
Listing of entries alongside the reported IC50.
reported_metric: IC50 (nM)

# smiles_input, reported_metric, value_reported
rows = [
    ("COC[C@H](NC(=O)[C@H](CC(=O)NOC(C)(C)C)NC(=O)CN1CCOCC1)C(=O)NCc1cccc2ccccc12", "IC50", 250),
    ("COC[C@H](NC(=O)[C@H](CC(=O)NC1COC1)NS(C)(=O)=O)C(=O)NCc1cccc2ccccc12", "IC50", 4730),
    ("COC[C@H](NC(=O)[C@H](CC(=O)NOC(C)(C)C)NC(=O)CCc1ccccc1)C(=O)NCc1cccc(OC)c1OC", "IC50", 245),
    ("COC[C@H](NC(=O)[C@H](CC(=O)NOC(C)(C)C)NC(=O)CCc1ccccc1)C(=O)NCc1cccc(OC)c1", "IC50", 9.4),
]

====

- Test system: Karpas 1106p cells
- assay_remarks: Cytotoxicity (LD50) against Karpas lymphoma cells
- Type: cell-based, human
- condition_summary: Table 3
reported_metric: log10 of LD50 (log10 of the value in µM)

# smiles_input, reported_metric, value_reported
measured = [
    ("CC(C)(C)NC(=O)C[C@H](NC(=O)C(=O)c1c[nH]c2ccccc12)C(=O)N[C@@H](Cc1ccc(F)cc1)C(=O)NCc1cccc2ccccc12", "log10 of LD50", -1.08),
    ("COC[C@H](NC(=O)[C@H](CC(=O)NOC(C)(C)C)NC(=O)CCc1ccccc1)C(=O)NCc1cccc2cccnc12", "log10 of LD50", 0.80),
    ("COC[C@H](NC(=O)[C@H](CC(=O)NOC(C)(C)C)NC(=O)c1cc(C)on1)C(=O)NCc1cccc2ccccc12", "log10 of LD50", 0.17),
    ("COC[C@H](NC(=O)[C@H](CC(=O)NOC(C)(C)C)NC(=O)CCCc1ccccc1)C(=O)NCc1cccc2ccccc12", "log10 of LD50", 0.65),
    ("COC[C@H](NC(=O)OC(C)(C)C)C(=O)N[C@@H](C)C(=O)NCc1cccc2ccccc12", "log10 of LD50", 1.57),
    ("COC[C@H](NC(=O)[C@H](CC(=O)NOC(C)(C)C)NC(=O)CCc1ccccc1)C(=O)NCc1cccc(OC)c1OC", "log10 of LD50", 0.62),
    ("Cc1ccc(S(=O)(=O)N[C@@H](CCC(=O)NC(C)(C)C)C(=O)N[C@@H](C)C(=O)NCc2cccc(C(F)(F)F)c2)cc1", "log10 of LD50", -0.02),
    ("CC(C)(C)NC(=O)CC[C@H](NC(=O)CCc1ccccc1)C(=O)N[C@@H](Cc1ccc(F)cc1)C(=O)NCc1cccc2ccccc12", "log10 of LD50", 0.08),
    ("C[C@H](NC(=O)[C@H](CC(=O)NC(C)(C)C)NC(=O)C(=O)c1c[nH]c2ccccc12)C(=O)NCc1cccc2ccccc12", "log10 of LD50", -0.66),
    ("C[C@H](NC(=O)[C@H](CC(=O)NOC(C)(C)C)NC(=O)Cc1ccccc1)C(=O)NCc1cccc2ccccc12", "log10 of LD50", 0.96),
    ("CC(C)(C)NC(=O)C[C@H](NC(=O)CCc1ccccc1)C(=O)N[C@@H](Cc1ccc(F)cc1)C(=O)NCc1cccc2ccccc12", "log10 of LD50", -0.70),
]

====

- Tested on: Karpas 1106p cells
- assay_remarks: Cytotoxicity (LD50) against Karpas lymphoma cells
- Format: cell-based, human
- condition_summary: Table 3
reported_metric: log10(LD50) (log10 of the value in µM)

# compound, target_system, value_reported
data = [
    ("C[C@H](NC(=O)[C@H](CCC(=O)NC(C)(C)C)NC(=O)CCc1ccccc1)C(=O)NCCc1cccc2ccccc12 [DPLG-3012]", "Karpas 1106p cells", 0.62),
    ("C[C@H](NC(=O)[C@H](CCC(=O)NC(C)(C)C)NC(=O)CCc1ccccc1)C(=O)NOc1ccccc1 [DPLG-3013]", "Karpas 1106p cells", 1.04),
    ("C[C@H](NC(=O)[C@H](CC(=O)NOC(C)(C)C)NC(=O)CCc1ccccc1)C(=O)NCc1cccc2[nH]ccc12 [DPLG-2083]", "Karpas 1106p cells", -0.60),
    ("C[C@H](NC(=O)[C@H](CC(=O)NC1COC1)NC(=O)CCc1ccccc1)C(=O)NCc1cccc2ccccc12 [DPLG-2130]", "Karpas 1106p cells", 1.83),
    ("COC[C@H](NC(=O)[C@H](CC(=O)NC(C)(C)C)NC(=O)CCc1ccccc1)C(=O)NCc1cccc2ccccc12 [DPLG-2230]", "Karpas 1106p cells", 0.05),
    ("COC[C@H](NC(=O)[C@H](CC(=O)NOC(C)(C)C)NC(=O)CCc1ccccc1)C(=O)NCc1cccc2ccccc12 [DPLG-2086]", "Karpas 1106p cells", -0.34),
]

====

- target_system: hu i-20S β5i-subunit (Homo sapiens, UniProt P20618+P28062)
- assay_remarks: N,C-capped dipeptides IC50, Ac-ANW-AMC fluorescence assay
- Assay type: biochemical
- condition_summary: Hu c-20S over Hu i-20S
Listing of entries alongside the reported SI (selectivity index).
reported_metric: SI (selectivity index)

# molecule, reported_metric, value_reported
records = [
    ("COC[C@H](NC(=O)[C@H](CC(=O)NOC(C)(C)C)NC(=O)CCc1ccccc1)C(=O)NCc1cccc2cccnc12 [DPLG-2220]", "SI (selectivity index)", 19),
    ("CC(C)(C)NC(=O)C[C@H](NC(=O)CCc1ccccc1)C(=O)N[C@@H](Cc1ccc(F)cc1)C(=O)NCc1ccc(-c2ccccc2)cc1 [DPLG-21049]", "SI (selectivity index)", 5),
    ("CC(C)(C)NC(=O)C[C@H](NC(=O)CCc1ccccc1)C(=O)N[C@@H](Cc1ccncc1)C(=O)NCc1cccc2ccccc12 [DPLG-21033]", "SI (selectivity index)", 83),
]

====

- target_system: hu i-20S β5i-subunit (Homo sapiens, UniProt P20618+P28062)
- assay_remarks: N,C-capped dipeptides IC50, Ac-ANW-AMC fluorescence assay
pIC50: −log10 of the molar value.

# smiles_input, pIC50
measured = [
    ("CC(C)(C)NC(=O)C[C@H](NC(=O)CCc1ccccc1)C(=O)N[C@@H](Cc1ccncc1)C(=O)NCc1cccc2ccccc12", 8.28),
    ("C[C@H](NC(=O)[C@H](CCC(=O)NC(C)(C)C)NC(=O)CCc1ccccc1)C(=O)NOc1ccccc1", 6.64),
    ("COC[C@H](NC(=O)[C@H](CC(=O)NOC(C)(C)C)NC(=O)CCc1ccccc1)C(=O)NCc1cccc2cccnc12", 7.15),
    ("CC(C)(C)NC(=O)C[C@H](NC(=O)CCc1ccccc1)C(=O)N[C@@H](Cc1ccc(F)cc1)C(=O)NCc1ccc(-c2ccccc2)cc1", 6.88),
    ("COC[C@H](NC(=O)[C@H](CC(=O)NOC(C)(C)C)NC(=O)c1cc(C)on1)C(=O)NCc1cccc2ccccc12", 8.05),
    ("COC[C@H](NC(=O)[C@H](CC(=O)NC1COC1)NS(=O)(=O)c1ccc(C)cc1)C(=O)NCc1cccc2ccccc12", 7.16),
    ("CC(C)(C)NC(=O)C[C@H](NC(=O)C(=O)c1c[nH]c2ccccc12)C(=O)N[C@@H](Cc1ccc(F)cc1)C(=O)NCc1cccc2ccccc12", 8.85),
]
